Reference source for all entries: patent US20240383915A1

Study target: KRas(G12V) (Homo sapiens (Human), UniProt P01116, G12V)
Sequence (P01116-2 other isoform, or with tags, fused parts or gaps G12V): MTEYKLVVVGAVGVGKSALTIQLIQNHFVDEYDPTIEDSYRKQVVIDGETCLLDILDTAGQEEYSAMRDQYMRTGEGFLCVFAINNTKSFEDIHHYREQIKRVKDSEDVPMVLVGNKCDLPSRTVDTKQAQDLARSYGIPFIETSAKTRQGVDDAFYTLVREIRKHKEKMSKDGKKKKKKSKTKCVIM
Experimental protocol: KRas(G12V) GDP HTRF (BODIPY-GDP exchange TR-FRET)
Experimental endpoint: IC50 (nM)

[P] CNc1cnc(N)c([C@@H](C)N2CCOc3c(Cl)c(-c4nc(N)cc(C)c4C(F)(F)F)cc4ncnc2c34)c1
[Q] Cc1cc(N)nc(-c2c(Cl)c3c4c(nc(OCC56CCC(CC5)OC6)nc4c2F)N([C@H](C)c2cccnc2N)CCO3)c1C(F)(F)F
[R] Cc1cc(N)nc(-c2c(Cl)c3c4c(nc(OC[C@@H]5CC[C@H]6COCCN65)nc4c2F)N([C@H](C)c2nccnc2N)CCO3)c1C(F)(F)F (atropisomer, axis not shown; (aS)) [Example 104a]
Query string: Could you list the above compounds by IC50, going from the biggest number down? Write the labels in rank order as requested.
Result string: P, Q, R
(P: 18 nM, Q: 0.81 nM, R: 0.15 nM)

[A] COCCN1CCC(Oc2nc3c4c(c(Cl)c(-c5nc(N)cc(C)c5C(F)(F)F)c(F)c4n2)OCCN3[C@H](C)c2cccnc2N)CC1 (atropisomer, axis not shown)
[B] C[C@H](c1cccnc1N)N1CCOc2c(Cl)c(-c3nc(N)ccc3C(F)(F)F)c(F)c3nc(OC[C@@]45CCCN4C[C@H](F)C5)nc1c23 (atropisomer, axis not shown; (aS)) [Example 108a]
Query string: When their IC50 values are compared, which is larger, A or B ? Respond using the label that marks the chosen record.
Result string: A
(A: 0.34 nM, B: 0.06 nM)

###

Study target: KRas(G12V) (Homo sapiens (Human), UniProt P01116, G12V)
Experimental protocol: KRas(G12V) GDP HTRF (BODIPY-GDP exchange TR-FRET)
pIC50: −log10 of the molar value.
Experimental endpoint: pIC50

molecule="Cc1cc(N)nc(-c2c(Cl)c3c4c(nc(OC[C@@H]5CCC(=O)N5)nc4c2F)N([C@H](C)c2cccnc2N)CCO3)c1C(F)(F)F (atropisomer, axis not shown) [Example 121]" experimental_endpoint=pIC50 recorded_result=10.15

[1] Cc1cc(N)nc(-c2c(Cl)c3c4c(nc(OC[C@@]56CCCN5C[C@H](F)C6)nc4c2F)N(Cc2cccnc2N)CCO3)c1C(F)(F)F (single isomer, unassigned) [Example 42a]
[2] Cc1cc(N)nc(-c2c(Cl)c3c4c(nc(OC[C@H]5C[C@@H](O)C5)nc4c2F)N([C@H](C)c2cccnc2N)CCO3)c1C(F)(F)F (atropisomer, axis not shown) [Example 146]
Query string: // task: argmin of pIC50 over [ 1 , 2 ] Respond using the label that marks the chosen record.
Result string: 2

[1] Cc1cc(N)nc(-c2cc3ncnc4c3c(c2Cl)OCCN4CCn2ccccc2=O)c1C(F)(F)F [Example 51]
[2] Cc1cc(N)nc(-c2c(Cl)c3c4c(nc(OC[C@H]5CC[C@@H]6COCCN65)nc4c2F)N([C@H](C)c2cccnc2N)CCO3)c1C(F)(F)F (atropisomer, axis not shown; (aR)) [Example 87b]
Query string: When their pIC50 values are compared, which is larger, 1 or 2 ? Respond using the label that marks the chosen record.
Result string: 2

###

Study target: KRas(G12V) (Homo sapiens (Human), UniProt P01116, G12V)
Experimental protocol: KRas(G12V) GDP HTRF (BODIPY-GDP exchange TR-FRET)
pIC50: −log10 of the molar value.
Experimental endpoint: pIC50

[1] Cc1cc(N)nc(-c2cc3nc(OC[C@@]45CCCN4CC(F)(F)C5)nc4c3c(c2Cl)OCCN4C)c1C(F)(F)F
[2] Cc1cc(N)nc(-c2c(Cl)c3c4c(nc(OCC56COC(CF)(C5)C6)nc4c2F)N([C@H](C)c2cccnc2N)CCO3)c1C(F)(F)F
[3] Cc1cc(N)nc(-c2c(Cl)c3c4c(nc(OC[C@@H]5C[C@H]6COCCN65)nc4c2F)N([C@H](C)c2cccnc2N)CCO3)c1C(F)(F)F (atropisomer, axis not shown) [Example 99a]
Query string: Could you list the above compounds by pIC50, going from the biggest number down? Write the labels in rank order as requested.
Result string: 3, 2, 1
